assay: yeast display, Sf9 membrane polyspecificity reagent, FACS + sequencing; frameworks hold sequencing errors
readout.name: polyreactivity (PSR sort gate)

Use the examples below as a reference point.
QVQLVESGGGLVQAGGSLRLSCAASGYTLDNYAMGWYRQAPGKERELVAGITFSGGSTFYADSVKGRFTISRDNAKNTVYLQMNSLKPEDTAVYYCAADAEFQADHKYGYWGQGSQVTVSS    low polyreactivity
QVQLVESGGGLVQAGGSLRLSCAASGRIFLYTAMGWYRQAPGKERELVAAIDGGGTTYADSVKGRFTISRDNAKNTVYLQMNSLKPEDTAVYYCAGDWYYQYSIYRYGYWGQGTQVTVSS    low polyreactivity
QVQLVESGGGLVQAGGSLRLSCAASGFIFYSYDMGWYRQAPGKERELVAAIDSRGVNTYYADSVKGRFTISRDNAKNTVYLQMNILKPEDTAVYYCNVDAITWWDWEDFDYWGQGTQVTVSS    low polyreactivity
QVQHVESGGGLVQAGGSLRLSCAASGSTFSLYAMGWSRQAPGKERELVAAIRGSGGSPYYADSVKGRFTISRDNAKNTVYLQMNTQTPEDSAVYYCAKKRYHGSNYGYDYWGQGTQVTVSS    high polyreactivity
QVQLVESGGGLVQAGGSLRLSCAAYGFIFTRYAMGWSRQAPGKERELVAAISSSGGSTSYADSVKGRFTISRDNAKNTVYFQMNSLKPEDTAVYYCAARGYRLARYRSYDYWGQGTQVTVSS    high polyreactivity

Exercise: What measured polyreactivity (PSR sort gate) goes with QVQLVESGGGLVQAGGSLRLSCAASGRIFTTYAMGWYRQAPGKERELVAAISRSGGSTYYADSVKGRFTISRDNAKNTVYLQMKSLKPEDTAVYYCAAVPTSNSFRSSFYYWGQGTQVTVSS ?
Key: high polyreactivity

Exercise: What measured polyreactivity (PSR sort gate) goes with QVQLVESGGGLVQAGGSLRLSCAASGLTFLRNGMGLYRQAPGKERELVASITRSGTRTYYADSVKGRFTISRDNAKNSVYLQMNSLKPEDTAVYYCAARAYVSHYGVSNFGFYYWVQGTQVTVSS ?
Key: high polyreactivity

Exercise: What measured polyreactivity (PSR sort gate) goes with QVQLVESGGGLVQAGGSLRLSCAASGIIFDWYAMGWYRQAPGTERELVAAISDSGDTTYYADSVKGRFTISRDNAKNTVYLQMNSLNPEDTAVYYCAARWEYVGYRRRYYRFDYWGQGTQVTVSS ?
Key: high polyreactivity

Exercise: What measured polyreactivity (PSR sort gate) goes with QVQLEESGAGLVQAGGRLRLSCAASGITFILYAMGWYRHAPGKERELVAAISSGGRTKYADSEKGRFTISRDNAKNTVYLQMTSLKPEDTAVYYCNVSYLVYRWNFGWSMDYWGQGTQVTVSS ?
Key: low polyreactivity

Exercise: What measured polyreactivity (PSR sort gate) goes with QVQLVESGGGLVQAGGSLRLICAASGSTFGFNAMGWSRQAPGKERELLPLLWSGGSTYYADSVKGRFTISRDNAKNTVYLQMNSLIPEDTAVYYCNKDSPPITRYDYWGQGTQVTVSS ?
Key: low polyreactivity

Exercise: What measured polyreactivity (PSR sort gate) goes with QVQLVESGGGLVQAGGSLRLSCAASGFIFIYDMGWYRQAPGKERELVAAITSSDGSTYYADSVKGRFTISRDNAKNTVYLQMNSLKPEDTAVYYCNAKYPWGNYNSVSYDYWGQGTQVTVSS ?
Key: high polyreactivity
